Test: Solubility of saccharides in water at 37° C.
Type: physicochemical
Conditions: water, unit from the definition, the table prints none
measure name: Solubility in water at 37° C. (% by weight)

# compound, readout units, experimental value
measured = [
    ("OC[C@@H](O)[C@@H](O)CO [Erythritol]", "% by weight", 44),
    ("OC[C@@H](O)[C@H](O)[C@@H](O)CO [Xylitol]", "% by weight", 72),
    ("OC[C@H]1O[C@H](OC[C@H]2OC(O)(CO)[C@@H](O)[C@@H]2O)[C@H](O)[C@@H](O)[C@@H]1O (stereo partly shown) [Palatinose]", "% by weight", 40),
    ("OC[C@@H](O)[C@@H](O)[C@H](O)[C@H](O)CO [Mannitol]", "% by weight", 23),
    ("O=C(CO)[C@@H](O)[C@H](O)[C@H](O)CO [Fructose]", "% by weight", 84),
    ("OC[C@@H](O)[C@@H](O[C@H]1O[C@H](CO)[C@@H](O)[C@H](O)[C@H]1O)[C@H](O)[C@@H](O)CO [Maltitol]", "% by weight", 63),
    ("OC[C@H]1O[C@@](CO)(O[C@H]2O[C@H](CO)[C@@H](O)[C@H](O)[C@H]2O)[C@@H](O)[C@@H]1O [Sucrose]", "% by weight", 68),
    ("OC[C@H]1O[C@H](O[C@H]2O[C@H](CO)[C@@H](O)[C@H](O)[C@H]2O)[C@H](O)[C@@H](O)[C@@H]1O [Trehalose]", "% by weight", 52),
    ("OC[C@@H](O)[C@@H](O[C@@H]1O[C@H](CO)[C@H](O)[C@H](O)[C@H]1O)[C@H](O)[C@@H](O)CO [Lactitol]", "% by weight", 70),
    ("OC[C@@H](O)[C@@H](O)[C@H](O)[C@@H](O)CO [Sorbitol]", "% by weight", 74),
]
